assayed system: TYK2-JH2 domain (Homo sapiens, UniProt P29597)
Construct: JAK1-JH2 domain or TYK2-JH2 domain enzyme in assay buffer
Sequence (P29597 589-875 limits assumed): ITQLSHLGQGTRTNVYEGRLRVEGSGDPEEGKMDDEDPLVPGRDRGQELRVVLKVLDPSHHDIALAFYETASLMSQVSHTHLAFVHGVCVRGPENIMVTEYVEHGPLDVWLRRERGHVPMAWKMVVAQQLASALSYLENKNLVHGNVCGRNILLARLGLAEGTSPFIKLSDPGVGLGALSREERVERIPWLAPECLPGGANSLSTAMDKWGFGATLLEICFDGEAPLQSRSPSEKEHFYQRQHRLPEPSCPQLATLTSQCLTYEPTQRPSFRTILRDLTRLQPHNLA
test protocol: Binding activity test for JH2 domain of TYK2 (Tb-antibody/tracer FRET)
experimental parameters: JH2 domain enzyme; 60 min at 25°C, then 4°C overnight; read-out: TYK2 JH2 Binding IC50
measure name: IC50 (nM)

# compound, measure name, uom, numeric result
measured = [
    ("[2H]C([2H])([2H])OC(c1ccc2c(c(Nc3cc(NC(=O)C4CC4)ncc3C(=O)OC)nn2CCOC)c1OC)C(F)(F)F (stereo not drawn) [Example 157]", "IC50", "nM", 0.15),
    ("[2H]C([2H])([2H])OC(=O)c1cnc(NC(=O)C2CC2)cc1Nc1cnn2ccc([C@H](OC([2H])([2H])[2H])C(F)(F)F)c(OC)c12", "IC50", "nM", 0.26),
    ("[2H]C([2H])([2H])O[C@H](c1ccc2c(c(Nc3cc(NC(=O)C4CC4)ncc3C(=O)OC)nn2C([2H])([2H])[2H])c1OC)C(F)(F)F [Example 53A]", "IC50", "nM", 0.627),
    ("COC(=O)c1cnc(NC(=O)C2CC2)cc1Nc1nn(C)c2cnc(C(OC)C(F)(F)F)c(OC)c12 (stereo not drawn)", "IC50", "nM", 1.22),
    ("[2H]C([2H])([2H])NC(=O)c1cnc(NC(=O)C2CC2)cc1Nc1cnn2ccc([C@H](OC)C(F)(F)F)c(OC)c12", "IC50", "nM", 0.064),
    ("CCC(=O)c1cnc(NC(=O)C2CC2)cc1Nc1ccc2[nH]cnc2c1OC [Example 197, reference compound]", "IC50", "nM", 2.72),
    ("COC(=O)c1cnc(NC(=O)C2CC2)cc1Nc1cccc(-c2cnn(C)n2)c1OC", "IC50", "nM", 0.285),
    ("[2H]C([2H])([2H])CC(=O)c1cnc(NC(=O)C2CC2)cc1Nc1cnn2ccc([C@H](O)C(F)(F)F)c(OC)c12", "IC50", "nM", 0.075),
    ("[2H]C([2H])([2H])NC(=O)c1cnc(NC(=O)C2CC2)cc1Nc1cnn2ccc(CC(F)(F)F)c(OC)c12", "IC50", "nM", 0.106),
    ("[2H]C([2H])([2H])NC(=O)c1cnc(NC(=O)[C@@H]2C[C@@H]2F)cc1Nc1cnn2ccc(COC)c(OC)c12", "IC50", "nM", 0.102),
    ("COC(=O)c1cnc(NC(=O)C2CC2)cc1Nc1nn(C)c2ccc(C(OC)C(F)(F)F)c(OC)c12 (stereo not drawn)", "IC50", "nM", 0.209),
    ("[2H]C([2H])([2H])NC(=O)c1nnc(NC(=O)C2CC2)cc1Nc1nn(C)c2ccc([C@H](OC)C(F)(F)F)c(OC)c12 [Example 51B]", "IC50", "nM", 0.171),
    ("COC(=O)c1cnc(NC(=O)C2CC2)cc1Nc1nn(C)c2ccc([C@H](OC)C(C)OC)c(OC)c12 (stereo partly drawn)", "IC50", "nM", 1.11),
    ("COC(=O)c1cnc(NC(=O)C2CC2)cc1Nc1nn(C)c2ccc(Cl)c(OC)c12", "IC50", "nM", 0.377),
    ("[2H]C([2H])([2H])CC(=O)c1cnc(NC(=O)C2CC2)cc1Nc1nn(C)c2ccc(C(OC)C3(F)CC3)c(OC)c12 (stereo not drawn)", "IC50", "nM", 0.154),
    ("[2H]C([2H])([2H])O[C@@H](c1ccc2c(c(Nc3cc(NC(=O)C4CC45CC5)ncc3C(=O)OC)nn2C)c1OC)C(F)(F)F (stereo partly drawn)", "IC50", "nM", 0.21),
    ("CCC(=O)c1cnc(NC(=O)C2CC2)nc1Nc1cccc(-c2cnn(C)n2)c1OC", "IC50", "nM", 0.496),
    ("CCC(O)c1cnc(NC(=O)C2CC2)cc1Nc1nn(C)c2ccc([C@H](OC)C(F)(F)F)c(OC)c12 (stereo partly drawn)", "IC50", "nM", 34.7),
    ("CCC(=O)c1cnc(NC(=O)C2CC2)cc1Nc1ccc2cn[nH]c2c1OC [Example 196, reference compound]", "IC50", "nM", 3.93),
    ("CCOC(=O)c1cnc(NC(=O)C2CC2)cc1Nc1cnn2ccc([C@H](OC)C(F)(F)F)c(OC)c12", "IC50", "nM", 1.7),
    ("COC(=O)c1cnc(NC(=O)C2CC2)nc1Nc1cccc(-c2ncn(C)n2)c1OC", "IC50", "nM", 0.967),
    ("[2H]C([2H])([2H])NC(=O)c1cnc(NC(=O)C2CC2)cc1Nc1cnn2ccc(C(O)C(F)(F)F)c(OC)c12 (stereo not drawn)", "IC50", "nM", 0.147),
    ("COC(=O)c1cnc(NC(=O)[C@@H]2C[C@@H]2F)cc1Nc1nn(C)c2ccc(C(O)C(F)(F)F)c(OC)c12 (stereo partly drawn)", "IC50", "nM", 0.178),
    ("COC(=O)c1cnc(NC(=O)C2CC2)cc1Nc1nn(COCC[Si](C)(C)C)c2ccc(C(OC)C(F)(F)F)c(OC)c12 (stereo not drawn)", "IC50", "nM", 13.7),
    ("[2H]C([2H])([2H])NC(=O)c1cnc(Nc2ccc(N3CCOCC3)cn2)cc1Nc1nn(C)c2ccc([C@H](OC)C(F)(F)F)c(OC)c12", "IC50", "nM", 0.161),
    ("COC(=O)c1cnc(NC(=O)C2CC2)cc1Nc1nn(C)c2ccc(C3(C(F)(F)F)CC3)c(OC)c12", "IC50", "nM", 0.568),
    ("[2H]C([2H])([2H])NC(=O)c1cnc(NC(=O)C2CC2)cc1Nc1cnn2ccc([C@H](O)C(F)(F)F)c(OC)c12", "IC50", "nM", 0.097),
]
